Assay: small-molecule microarray binders of probe aCHRDL2, primary screen, biochemical, biotinylated probe, 635/667 nm fluorescence (AID 1100)
Conditions: higher = more signal
Reported property: composite z-score
Please reply with the number alone, leaving off any unit.

Molecule | composite z-score
CC(C)c1ccc(NN2C(C(O)c3c(F)cccc3Cl)C=CC3C(=O)N(c4ccccc4)C(=O)C32)cc1 (configuration not stated) | 1.13
O=C1C[C@@](C(=O)NC2CC2)(c2ccc([N+](=O)[O-])cc2)[C@@H](c2ccc(CO)cc2)N1CC12CC3CC(CC(C3)C1)C2 | 0.782
[N-]=[N+]=NCc1ccccc1C[C@]1(C(=O)O)N=C(c2ccc(OCCCO)cc2)O[C@H]1c1ccccc1CN=[N+]=[N-] | 1.01
CO[C@H]1O[C@H](CO)[C@@H](OC(=O)Nc2ccc(Oc3ccccc3)cc2)[C@H](OC(=O)Nc2ccccc2)[C@H]1OC(=O)Nc1ccccc1 | 0.766
C=CCC(OC(C)=O)[C@@H]1[C@@H](N(Cc2cccc3ccccc23)C(=O)c2cccc3ccccc23)c2cc(OCCCO)ccc2N1C(=O)c1ccc2ccccc2n1 (some centres not stated) | 0.181

Form: molecule = CCOC(=O)[C@H]1C[C@H]2O[C@@]23C[C@H]1C(=O)N1CCCC1[C@@H]3O[Si](C)(C)C(C)(C)C (some centres not stated) ; composite z-score = -0.528

Entry CC(C)OC(=O)CC(=O)CC(O)c1ccc(C#N)cc1 (configuration not stated) , composite z-score reported as 1.23
